assay: in vitro; assay type: cell-based, Chinese hamster; conditions: hamster, cho auxb1 cells
For each of the molecules below, state its viability at 96 h, 1 µM.
# unit: % | format: bare number

Exercise: For the molecule Brc1ccc2c(c1)/C(=C/CCN1CCCC1)c1ccccc1OC2 , give its reported viability at 96 h, 1 µM.
Solution: 79

Exercise: For the molecule CN(C)CCC=C1c2ccc(Br)cc2COc2ccccc21 , give its reported viability at 96 h, 1 µM.
Solution: 83

Exercise: For the molecule CCN(CC)CC/C=C1/c2ccccc2COc2ccc(Br)cc21 , give its reported viability at 96 h, 1 µM.
Solution: 90

Exercise: For the molecule Brc1ccc2c(c1)/C(=C\CCN1CCCC1)c1ccccc1CO2 , give its reported viability at 96 h, 1 µM.
Solution: 100

Exercise: For the molecule CN(C)CC/C=C1/c2cc(Br)ccc2COc2ccc(Br)cc21 , give its reported viability at 96 h, 1 µM.
Solution: 84

Exercise: For the molecule Fc1ccc2c(c1)/C(=C/CCN1CCCC1)c1ccccc1CO2 [(S)] , give its reported viability at 96 h, 1 µM.
Solution: 91
